This listing pairs compounds with measured EC50.
- study.target: human Kv7.2 (Homo sapiens, UniProt O43526)
- Sequence (O43526 whole entry): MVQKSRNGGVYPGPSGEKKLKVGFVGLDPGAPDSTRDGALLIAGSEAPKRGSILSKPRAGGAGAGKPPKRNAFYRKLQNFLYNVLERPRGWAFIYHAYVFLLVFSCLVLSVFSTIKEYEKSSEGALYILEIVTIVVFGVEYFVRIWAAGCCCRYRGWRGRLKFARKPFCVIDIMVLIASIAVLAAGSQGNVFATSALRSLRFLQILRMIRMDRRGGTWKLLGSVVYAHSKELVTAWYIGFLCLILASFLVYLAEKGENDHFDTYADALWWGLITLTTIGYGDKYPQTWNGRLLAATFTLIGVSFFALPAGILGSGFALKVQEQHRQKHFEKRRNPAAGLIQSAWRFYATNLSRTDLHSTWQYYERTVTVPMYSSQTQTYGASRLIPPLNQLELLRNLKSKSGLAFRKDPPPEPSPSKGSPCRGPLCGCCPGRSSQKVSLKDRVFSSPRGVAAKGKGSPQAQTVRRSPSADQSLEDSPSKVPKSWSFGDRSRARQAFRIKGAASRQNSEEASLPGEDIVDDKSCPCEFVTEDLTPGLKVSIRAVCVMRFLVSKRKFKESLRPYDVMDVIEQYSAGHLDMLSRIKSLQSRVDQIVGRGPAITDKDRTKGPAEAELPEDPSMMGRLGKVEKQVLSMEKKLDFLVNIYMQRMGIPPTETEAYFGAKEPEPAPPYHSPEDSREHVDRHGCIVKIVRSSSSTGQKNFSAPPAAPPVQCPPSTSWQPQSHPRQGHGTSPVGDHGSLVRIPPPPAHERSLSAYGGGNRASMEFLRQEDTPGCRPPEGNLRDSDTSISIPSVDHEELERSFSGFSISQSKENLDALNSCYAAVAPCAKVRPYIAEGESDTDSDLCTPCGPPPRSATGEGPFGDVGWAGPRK
- experiment.notes: activation (potentiation) of Kv7.2 current, SyncroPatch 384 electrophysiology in CHO cells stably expressing human Kv7.2
- particulars: human Kv7.2 in CHO cells; in presence of 5.6 μM zinc pyrithione; % activation relative to 30 μM ML-213
Dear colleague, please return just the value in nM, with no unit written.

See these solved cases before continuing.
O=C(NCC1(c2cccc(Cl)c2)CCO1)NC1CC2CCC1C2 (racemic)
190
CC[C@H]1C[C@@H]1C(=O)NC[C@@]1(c2cccc(C#N)c2)CCO1 (mixture of isomers)
4980
Cc1ccc(C2CC2C(=O)NC[C@@]2(c3cccc(C#N)c3)CCO2)o1 (stereo partly drawn)
500
N#Cc1cccc([C@]2(CNC(=O)C3CC34CCOCC4)CCO2)c1 (stereo partly drawn)
4080
N#Cc1cccc([C@]2(CNC(=O)[C@H]3C[C@@H]3c3ccc(Br)cc3)CCO2)c1
470

Request: human Kv7.2 (Homo sapiens, UniProt O43526) / EC50 / O=C1CCC(CNC(=O)[C@H]2C[C@@H]2c2ccccc2)(c2cccc(Cl)c2)O1 (stereo partly drawn) : value?
Result: 80

Request: Form field - read-out: EC50; system: human Kv7.2 (Homo sapiens, UniProt O43526); submitted item: O=C(NCC1(c2cccc(Cl)c2)CC1)NC1CCCC1
Result: 2720

Request: Hi! What's the reported EC50 for COC(C)(CNC(=O)NC1CC2CCC1C2)c1cccc(Cl)c1 (racemic) on human Kv7.2 (Homo sapiens, UniProt O43526)?
Result: 1350

Request: human Kv7.2 (Homo sapiens, UniProt O43526) / EC50 / COC(CNC(=O)NC1CC2CCC1C2)c1cccc(Cl)c1 (stereo not drawn) : value?
Result: 500

Every entry's value here was drawn from patent US20260308149A1.
